- SUBJECT OF TEST: T1, cynomolgus IL-1α (cynomolgus, UniProt P79340 113-271, limits assumed)
- T1 construct: also called cyno IL-1α
- T1 sequence (looked up): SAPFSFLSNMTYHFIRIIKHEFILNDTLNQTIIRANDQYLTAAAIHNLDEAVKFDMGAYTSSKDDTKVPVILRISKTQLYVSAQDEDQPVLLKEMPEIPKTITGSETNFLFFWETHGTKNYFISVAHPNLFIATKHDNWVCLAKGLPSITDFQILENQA
- TEST: SPR (BIACORE), antibody captured, IL-1α in solution

[
  {
    "BINDER": "h3D12.r37 (antibody, V domains shown) VH: EIQLVQSGAEVKKPGASVKVSCKASGYTFKYYGMNWVRQAPGQGLERMGWINTYTGESRYADDFKGRVTFTLDTSTSTAYMELSSLRSEDTAVYYCARDIYYFGSDYAMDYWGQGTTVTVSS VL: DIQMTQSPSSLSASVGDRVTITCRASQDISNRLNWYQQKPGKAPKLLIYYASRLKPGVPSRFSGSGSGTDYTFTISSLQPEDIATYFCQQGNTPPYTFGQGTKLEIK",
    "koff, s⁻¹": "3.82e-05"
  }
]
